Field: Neutralization PSV IC50. Provide a value for each of the binders that follow.
molecular target: VP1 capsid protein on BKV pseudovirions of genotype II (GBR-12; AB263920) (BK virus genotype II (GBR-12)); assay: cell-based or functional assay
Numbers only, in µg/mL.

antibody C10P7 (antibody, V domains shown) VH: QVQLVQSGSEVKKPGTSVKVSCKASGETYVGHSISWVRQAPGAGLEWMGWISLHNGNVKYAQKLQGRVTMTTDTSTITAYMELRNLTSDDTAVYYCARVPMKIYGVIVFGEYYYDQLDVWGQGTTVTVSS VL: QSALTQPPSASGSPGQSVTISCTGTGSDVGGYNYVSWYQQHPGKAPKLMIYEVSKRPSGVPDRFSGSKSGNTASLTVSGLQAEDEADYYCSSYAGSKVVFGGGTKLTVL: 11.2

Turning now to a further record.
## Task What does the record list as Neutralization PSV IC50 for antibody F4P5 (antibody, V domains shown) VH: EVQLVESGGGVVQPGRSLRLSCAASGFTFSNFGMHWVRQPPGKGLEWVAVISYDGSDKFYADSVKGRFTISRDNFKNTLYVQMNSLRAEDTAVYYCAKDRVRTKYYYDHSGPFDYWGRGTLVTVSS VL: SYELTQPPSVSVAPGQTARIACGGNNIGSKSVHWYQQRPGQAPVLVVYDDDDRPSGIPERFSGSNSGNTATLTISRVEAGDEADYFCQVWMTNSDRPVFGGGTKLTVL ?
## Result 0.471
